As shown below, each of these compounds has a reported pEC50 value.
target: HER2 wild type Ba/F3 cell line (Homo sapiens); assay: Ba/F3 cell proliferation MTS assay, HER2 wild type; conditions: HER2 wild type Ba/F3 cells, 72 hours
Sequence (P04626 whole entry, change not shown): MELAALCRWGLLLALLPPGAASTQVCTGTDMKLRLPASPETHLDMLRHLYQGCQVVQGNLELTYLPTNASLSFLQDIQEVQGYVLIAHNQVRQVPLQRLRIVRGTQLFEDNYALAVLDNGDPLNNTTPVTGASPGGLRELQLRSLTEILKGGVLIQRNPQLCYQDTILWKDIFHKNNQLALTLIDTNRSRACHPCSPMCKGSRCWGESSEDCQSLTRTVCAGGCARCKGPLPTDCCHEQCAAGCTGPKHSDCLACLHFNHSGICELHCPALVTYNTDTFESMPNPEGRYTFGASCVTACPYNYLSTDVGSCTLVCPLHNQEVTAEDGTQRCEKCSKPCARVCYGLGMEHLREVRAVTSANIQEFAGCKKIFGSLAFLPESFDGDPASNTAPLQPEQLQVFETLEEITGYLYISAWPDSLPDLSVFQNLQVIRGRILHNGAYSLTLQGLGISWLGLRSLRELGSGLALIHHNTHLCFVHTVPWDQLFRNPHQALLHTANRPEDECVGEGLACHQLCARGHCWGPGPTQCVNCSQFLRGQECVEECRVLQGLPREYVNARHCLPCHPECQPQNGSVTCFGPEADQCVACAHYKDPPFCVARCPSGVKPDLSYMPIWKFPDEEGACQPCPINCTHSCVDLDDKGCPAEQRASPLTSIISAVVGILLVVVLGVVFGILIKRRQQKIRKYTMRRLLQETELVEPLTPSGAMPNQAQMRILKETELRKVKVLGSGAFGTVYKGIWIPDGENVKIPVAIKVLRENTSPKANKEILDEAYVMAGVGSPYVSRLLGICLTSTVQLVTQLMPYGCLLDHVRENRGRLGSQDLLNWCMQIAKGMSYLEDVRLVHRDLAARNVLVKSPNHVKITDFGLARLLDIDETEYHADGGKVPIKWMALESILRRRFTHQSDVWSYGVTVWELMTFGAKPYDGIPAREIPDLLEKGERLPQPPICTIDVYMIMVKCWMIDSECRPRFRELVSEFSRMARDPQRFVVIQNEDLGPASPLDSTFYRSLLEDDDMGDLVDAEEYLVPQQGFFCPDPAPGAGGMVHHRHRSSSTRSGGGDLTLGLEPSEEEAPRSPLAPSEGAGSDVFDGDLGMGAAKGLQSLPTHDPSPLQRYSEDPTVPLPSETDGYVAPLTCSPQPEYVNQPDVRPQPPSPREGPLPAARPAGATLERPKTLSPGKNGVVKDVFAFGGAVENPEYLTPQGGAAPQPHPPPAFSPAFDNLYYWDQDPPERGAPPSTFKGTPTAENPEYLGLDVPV
pEC50: −log10 of the molar value.
experimental.readout: pEC50

In [3]: df
Out[3]:
                                   compound  experimental_readout  result_value
0  Cn1cc(Nc2nccc(N(C(=O)OCc3ccc(F)cc3)c3cccc(NC(=O)/C=C/CN4CCOCC4)c3)n2)cn1 [Compound I-26]                 pEC50        > 7.00
1  C=CC(=O)Nc1cccc(N(C(=O)OCc2ccccc2)c2ccnc(Nc3ccn(C)n3)n2)c1 [Compound I-1]                 pEC50        > 7.00
2  C=CC(=O)Nc1cccc(N(C(=O)OCc2ccc(F)cn2)c2ccnc(Nc3cnn(C)c3)n2)c1 [Compound I-11]                 pEC50  6.30 to 7.00
3  C=CC(=O)Nc1cccc(N(C(=O)OCc2cc3ccccc3s2)c2ccnc(Nc3ccn(C)n3)n2)c1 [Compound I-6]                 pEC50  6.00 to 6.30
4  CN(C)C/C=C/C(=O)Nc1cccc(N(C(=O)OCc2ccc(F)cc2)c2ccnc(Nc3cnn(C)c3)n2)c1 [Compound I-28]                 pEC50        > 7.00
5  C=CC(=O)Nc1cccc(N(C(=O)OCc2ccc(F)cn2)c2ccnc(Nc3ccn(C)n3)n2)c1 [Compound I-10]                 pEC50  6.30 to 7.00
6  C=CC(=O)Nc1cccc(N(C(=O)O[C@H](C)c2ccc(F)cc2)c2ccnc(Nc3cnn(C)c3)n2)c1 [Compound I-15]                 pEC50        > 7.00
